Measured values drawn from ChEMBL document CHEMBL1132351 for this set.

- target.or.test.system: Cholinesterase (Homo sapiens)
- Sequence (P06276 whole entry): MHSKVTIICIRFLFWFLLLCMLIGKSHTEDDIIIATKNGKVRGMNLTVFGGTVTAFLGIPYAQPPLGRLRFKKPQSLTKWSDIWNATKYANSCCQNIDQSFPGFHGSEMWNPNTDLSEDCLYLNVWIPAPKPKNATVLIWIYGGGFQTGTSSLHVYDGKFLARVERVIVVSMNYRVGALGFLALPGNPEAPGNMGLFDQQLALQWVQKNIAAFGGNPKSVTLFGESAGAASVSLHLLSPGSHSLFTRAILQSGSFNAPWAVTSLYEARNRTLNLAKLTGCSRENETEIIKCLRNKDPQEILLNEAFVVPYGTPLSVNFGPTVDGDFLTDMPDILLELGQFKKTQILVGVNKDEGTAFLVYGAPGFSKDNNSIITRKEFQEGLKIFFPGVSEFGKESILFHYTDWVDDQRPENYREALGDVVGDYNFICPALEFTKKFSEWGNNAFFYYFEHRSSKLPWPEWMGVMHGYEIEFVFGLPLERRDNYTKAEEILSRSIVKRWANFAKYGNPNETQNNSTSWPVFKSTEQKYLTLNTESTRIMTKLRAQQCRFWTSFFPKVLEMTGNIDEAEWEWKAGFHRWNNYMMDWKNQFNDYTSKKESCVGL
measure.name: pIC50
One number for each entry, as −log10 of the molar value.

Below are some molecules; for each one, tell me its pIC50.
1. CC1=CC2Cc3nc4cccc(F)c4c(N)c3C(C1)C2 (racemic)
2. CCC1=CC2Cc3nc4ccccc4c(N)c3C(C1)C2 (single isomer, unassigned; (-))
3. CC1=CC2Cc3nc4ccccc4c(N)c3C(C1)C2 (single isomer, unassigned; (-))
4. CC1=CC2Cc3nc4ccccc4c(N)c3C(C1)C2 (single isomer, unassigned; (+))
5. CC1=CC2Cc3nc4cc(C)ccc4c(N)c3C(C1)C2 (racemic)
6. CC1=C[C@@H]2Cc3nc4cc(F)ccc4c(N)c3[C@H](C1)C2 (racemic)
7. CCC1=CC2Cc3nc4cccc(C)c4c(N)c3C(C1)C2 (racemic)

### Response
1: 6.27; 2: 7.20; 3: 7.05; 4: 6.50; 5: 6.35; 6: 6.71; 7: 6.29

Below are some molecules; for each one, tell me its pIC50.
1. CCC1=CC2Cc3nc4ccccc4c(N)c3C(C1)C2 (single isomer, unassigned; (+))
2. CC1=CC2Cc3nc4ccccc4c(N)c3C(C1)C2 (racemic)
3. CCC1=CC2Cc3nc4ccccc4c(N)c3C(C1)C2 (racemic)
4. CCC1=CC2Cc3nc4cc(C)ccc4c(N)c3C(C1)C2 (racemic)

### Response
[6.96, 6.90, 7.10, 6.68]

###

Let's go through some recorded pIC50 values for Acetylcholinesterase (Bos taurus, UniProt P23795) together.
Numbers only, as −log10 of the molar value.

Past entries and their recorded results:
### Prompt Quick check: pIC50 of CCC1=CC2Cc3nc4ccccc4c(N)c3C(C1)C2 (single isomer, unassigned; (+)) ?
### Response 6.05

### Prompt Quick check: pIC50 of Nc1c2c(nc3ccccc13)CC1C=C(c3ccccc3)CC2C1 (racemic) ?
### Response 6.90

### Prompt Quick check: pIC50 of CC1=CC2Cc3nc4cccc(F)c4c(N)c3C(C1)C2 (racemic) ?
### Response 7.50

### Prompt Quick check: pIC50 of CC(C)C1=CC2Cc3nc4ccccc4c(N)c3C(C1)C2 (racemic) ?
### Response 6.99

Below are some compounds; for each one, tell me its pIC50.
1. CCC1=CC2Cc3nc4cccc(C)c4c(N)c3C(C1)C2 (racemic)
2. CC1=C[C@@H]2Cc3nc4cc(F)ccc4c(N)c3[C@H](C1)C2 (racemic)
3. CC1=CC2Cc3nc4ccccc4c(N)c3C(C1)C2 (single isomer, unassigned; (+))

### Response
[7.53, 8.07, 6.48]

Below are some compounds; for each one, tell me its pIC50.
1. CCC1=CC2Cc3nc4ccccc4c(N)c3C(C1)C2 (racemic)
2. C=CCC1=CC2Cc3nc4ccccc4c(N)c3C(C1)C2 (racemic)
3. CCC1=CC2Cc3nc4cc(C)ccc4c(N)c3C(C1)C2 (racemic)

### Response
1: 7.41; 2: 6.82; 3: 7.92

###

- target.or.test.system: Acetylcholinesterase (Bos taurus, UniProt P23795)
- Sequence (P23795 whole entry): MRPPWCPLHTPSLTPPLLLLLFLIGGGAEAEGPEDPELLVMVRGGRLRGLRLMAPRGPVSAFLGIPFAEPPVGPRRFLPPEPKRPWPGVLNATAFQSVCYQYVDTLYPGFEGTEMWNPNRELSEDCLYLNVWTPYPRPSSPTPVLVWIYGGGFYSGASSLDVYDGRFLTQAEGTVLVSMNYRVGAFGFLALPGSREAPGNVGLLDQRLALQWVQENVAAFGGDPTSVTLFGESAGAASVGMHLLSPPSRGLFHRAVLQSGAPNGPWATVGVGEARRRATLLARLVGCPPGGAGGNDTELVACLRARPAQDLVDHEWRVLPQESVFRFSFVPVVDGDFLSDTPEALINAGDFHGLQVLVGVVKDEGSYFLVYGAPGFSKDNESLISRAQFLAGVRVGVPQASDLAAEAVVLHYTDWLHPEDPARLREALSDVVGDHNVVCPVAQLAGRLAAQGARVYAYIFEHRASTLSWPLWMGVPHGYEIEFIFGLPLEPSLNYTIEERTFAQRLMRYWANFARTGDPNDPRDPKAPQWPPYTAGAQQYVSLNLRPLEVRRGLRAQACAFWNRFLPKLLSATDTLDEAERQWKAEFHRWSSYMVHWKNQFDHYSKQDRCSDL
For each record, write down the corresponding IC50.
Give bare numbers, in nM.

Past entries and their recorded results:
### Prompt Quick check: IC50 of CCC1=CC2Cc3nc4ccccc4c(N)c3C(C1)C2 (single isomer, unassigned; (-)) ?
### Response 27.4

### Prompt Quick check: IC50 of CC(C)(C)C1=CC2Cc3nc4ccccc4c(N)c3C(C1)C2 (racemic) ?
### Response 267

Please examine the following record next.
### Prompt Quick check: IC50 of CC1=CC2Cc3nc4ccccc4c(N)c3C(C1)C2 (racemic) ?
### Response 65
